Data credit: the supplement of paper PMC7600603

Recorded drug sensitivity score, one value per entry.
# System: DLD1 NRF2-WT
# Experiment notes: drug sensitivity score (DSS) cytotoxicity (DSS score); higher = more toxic; extreme values may be limits of the assay
# Experimental context: 72 h; CellTox Green cytotoxicity
// return just the number, without any unit appended

The cases that follow already have their drug sensitivity score on record.
query: // query drug sensitivity score value for entry CCS(=O)(=O)N1CC(CC#N)(n2cc(-c3ncnc4[nH]ccc34)cn2)C1
result: 0

query: Find the recorded drug sensitivity score belonging to C=CC(=O)Nc1cccc(Nc2nc(Nc3ccc(N4CCN(C(C)=O)CC4)cc3OC)ncc2C(F)(F)F)c1 and report it.
result: 1.5

query: Recorded drug sensitivity score of NC(=O)c1cccc(-c2cccc(OC(=O)NC3CCCCC3)c2)c1 , please.
result: 0

query: Dear colleague, I am looking for the recorded drug sensitivity score of the following compound: COC(=O)c1ccc2c(c1)[nH]c1ncnc(NCCCN3CCCCC3)c12
result: 0

Next:
query: Need drug sensitivity score of COC(=O)c1ccc2c(c1)NC(=O)/C2=C(\Nc1ccc(N(C)C(=O)CN2CCN(C)CC2)cc1)c1ccccc1 , thanks.
result: 0.5

query: Give its drug sensitivity score value. Item: COc1ccc(-c2ccc3ncc4c(c3c2)n(-c2ccc(N3CCNCC3)c(C(F)(F)F)c2)c(=O)n4C)cn1
result: 4.4
